testSystem: Muscarinic acetylcholine receptor M3 (Homo sapiens, UniProt P20309)
Sequence (P20309 whole entry): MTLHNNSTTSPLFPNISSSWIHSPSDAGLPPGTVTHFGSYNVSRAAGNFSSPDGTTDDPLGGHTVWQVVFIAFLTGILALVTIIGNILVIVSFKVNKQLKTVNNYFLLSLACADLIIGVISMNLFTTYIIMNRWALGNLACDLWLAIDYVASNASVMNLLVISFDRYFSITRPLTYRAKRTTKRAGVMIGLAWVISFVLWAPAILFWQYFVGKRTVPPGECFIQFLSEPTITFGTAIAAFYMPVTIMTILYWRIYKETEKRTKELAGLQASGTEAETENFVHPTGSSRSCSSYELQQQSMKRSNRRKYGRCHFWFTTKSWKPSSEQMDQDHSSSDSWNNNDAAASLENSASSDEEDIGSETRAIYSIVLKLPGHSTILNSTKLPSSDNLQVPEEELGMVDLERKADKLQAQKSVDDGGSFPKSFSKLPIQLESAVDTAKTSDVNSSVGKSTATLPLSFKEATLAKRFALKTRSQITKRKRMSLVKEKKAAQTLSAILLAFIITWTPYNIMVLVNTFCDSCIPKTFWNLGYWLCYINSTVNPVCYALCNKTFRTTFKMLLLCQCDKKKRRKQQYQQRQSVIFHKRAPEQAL
testProtocol: Displacement of [3H]-NMS from human muscarinic M3 receptor expressed in CHO-K9 cells after 3 hrs by microbeta2 scintillation counting method
Type: cell-based
readoutKind: pKi
// scale note: pKi = -log10(conc_M); give the bare number

The reported pKi of the compound CC(=O)N[C@@H](CCCCN)C(=O)N[C@@H](CCCNC(=N)N)C(=O)NCCCCC1CCN(CC(=O)N2c3ccccc3NC(=O)c3ccccc32)CC1 was 5.17

Form field pKi, entry CN1CC=C(c2nsnc2OCCCN2CCN(CCCCC3CCN(CC(=O)N4c5ccccc5NC(=O)c5ccccc54)CC3)CC2)CC1 : 7.88

Entry CC(=O)N[C@@H](CCCCN)C(=O)N[C@@H](Cc1ccc(O)cc1)C(=O)NCCN1CCN(CCCCC2CCN(CC(=O)N3c4ccccc4NC(=O)c4ccccc43)CC2)CC1 , pKi reported as 7.56

// pKi value for CC(=O)N[C@@H](CCC(N)=O)C(=O)N[C@@H](CC(C)C)C(=O)NCCN1CCN(CCCCC2CCN(CC(=O)N3c4ccccc4NC(=O)c4ccccc43)CC2)CC1 : 7.21

Kindly note the recorded pKi for CC(=O)N[C@@H](CCC(N)=O)C(=O)N[C@@H](C)C(=O)N[C@@H](CC(C)C)C(=O)NCCN1CCN(CCCCC2CCN(CC(=O)N3c4ccccc4NC(=O)c4ccccc43)CC2)CC1 , which is 6.82

# pKi (compound: CC(=O)N[C@@H](Cc1ccc(O)cc1)C(=O)N[C@@H](C)C(=O)N[C@@H](CCCCN)C(=O)NCCN1CCN(CCCCC2CCN(CC(=O)N3c4ccccc4NC(=O)c4ccccc43)CC2)CC1 ) is 7.55

---

testSystem: Muscarinic acetylcholine receptor M4 (Homo sapiens, UniProt P08173)
Sequence (P08173 whole entry): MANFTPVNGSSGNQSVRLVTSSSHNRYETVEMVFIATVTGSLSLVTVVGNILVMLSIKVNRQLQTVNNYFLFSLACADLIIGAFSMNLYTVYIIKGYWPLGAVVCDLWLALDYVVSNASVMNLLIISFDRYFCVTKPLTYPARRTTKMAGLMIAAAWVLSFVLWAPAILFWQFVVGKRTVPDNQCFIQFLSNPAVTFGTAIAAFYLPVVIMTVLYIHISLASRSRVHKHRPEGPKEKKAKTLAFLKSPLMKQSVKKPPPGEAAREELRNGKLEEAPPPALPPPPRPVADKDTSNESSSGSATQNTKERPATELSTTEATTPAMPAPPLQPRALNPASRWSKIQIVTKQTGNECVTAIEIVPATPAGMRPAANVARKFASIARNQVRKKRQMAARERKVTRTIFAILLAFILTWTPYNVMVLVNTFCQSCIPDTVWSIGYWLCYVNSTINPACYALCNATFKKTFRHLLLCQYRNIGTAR
testProtocol: Displacement of [3H]-NMS from human muscarinic M4 receptor expressed in CHO-K9 cells after 3 hrs by microbeta2 scintillation counting method
Assay type: cell-based
readoutKind: pKi
Please note pKi is a logarithmic value: minus log10 of concentration in mol/L. Answer with that number alone.

// pKi (Muscarinic acetylcholine receptor M4 (Homo sapiens, UniProt P08173)) for CC(=O)N[C@@H](CCCNC(=N)N)C(=O)NCCCCC1CCN(CC(=O)N2c3ccccc3NC(=O)c3ccccc32)CC1 = 6.83

Per the reported Muscarinic acetylcholine receptor M4 (Homo sapiens, UniProt P08173) data, CC(=O)N[C@@H](Cc1c[nH]c2ccccc12)C(=O)N[C@@H](Cc1ccc(O)cc1)C(=O)NCCCCC1CCN(CC(=O)N2c3ccccc3NC(=O)c3ccccc32)CC1 has pKi of 7.03

Record for CC(=O)N[C@@H](CCCCN)C(=O)N[C@@H](C)C(=O)N[C@@H](Cc1ccc(O)cc1)C(=O)NCCN1CCN(CCCCC2CCN(CC(=O)N3c4ccccc4NC(=O)c4ccccc43)CC2)CC1 under target or system Muscarinic acetylcholine receptor M4 (Homo sapiens, UniProt P08173): pKi reported as 8.90

Log: Muscarinic acetylcholine receptor M4 (Homo sapiens, UniProt P08173), compound CC(=O)N[C@@H](CCC(N)=O)C(=O)N[C@@H](C)C(=O)N[C@@H](CC(C)C)C(=O)NCCCCC1CCN(CC(=O)N2c3ccccc3NC(=O)c3ccccc32)CC1 , pKi = 6.38

// returns pKi for CC(=O)N[C@@H](CCC(N)=O)C(=O)N[C@@H](C)C(=O)N[C@@H](CC(C)C)C(=O)NCCN1CCN(CCCCC2CCN(CC(=O)N3c4ccccc4NC(=O)c4ccccc43)CC2)CC1 with Muscarinic acetylcholine receptor M4 (Homo sapiens, UniProt P08173); value = 8.45

Hey, Muscarinic acetylcholine receptor M4 (Homo sapiens, UniProt P08173) data for CC(=O)N[C@@H](CCCCN)C(=O)N[C@@H](CCCNC(=N)N)C(=O)NCCCCC1CCN(CC(=O)N2c3ccccc3NC(=O)c3ccccc32)CC1 : pKi came out at 7.21

---

testSystem: Muscarinic acetylcholine receptors; M2 & M3 (Homo sapiens) (UniProt P20309+P08172)
testProtocol: Selectivity ratio of Ki for human muscarinic M3 receptor expressed in CHO-K9 cells to Ki for human muscarinic M2 receptor expressed in CHO-K9 cells
Assay type: cell-based
Exercise: for every item that follows, state its recorded Ratio Ki.

The compound listed as CC(=O)N[C@@H](CCCCN)C(=O)N[C@@H](CCCNC(=N)N)C(=O)NCCCCC1CCN(CC(=O)N2c3ccccc3NC(=O)c3ccccc32)CC1 has a reported Ratio Ki of 6500

Lab note: measured Ratio Ki of CC(=O)N[C@@H](CCCNC(=N)N)C(=O)N[C@@H](CCCNC(=N)N)C(=O)NCCCCC1CCN(CC(=O)N2c3ccccc3NC(=O)c3ccccc32)CC1 was 710

The reported Ratio Ki of the compound CC(=O)N[C@@H](CCCNC(=N)N)C(=O)N[C@@H](CCCCN)C(=O)NCC(=O)NCCCCC1CCN(CC(=O)N2c3ccccc3NC(=O)c3ccccc32)CC1 was 620

---

Can you tell me Ratio Ki for the items I'm about to list?
testSystem: Muscarinic acetylcholine receptors; M1 & M2 (Homo sapiens) (UniProt P11229+P08172)
testProtocol: Selectivity ratio of Ki for human muscarinic M1 receptor expressed in CHO-K9 cells to Ki for human muscarinic M2 receptor expressed in CHO-K9 cells
Assay type: cell-based
Number only, no unit.

Data point: CC(=O)N[C@@H](Cc1ccc(O)cc1)C(=O)N[C@@H](C)C(=O)N[C@@H](CCCCN)C(=O)NCCCCC1CCN(CC(=O)N2c3ccccc3NC(=O)c3ccccc32)CC1 ; Ratio Ki = 19

Value of Ratio Ki reported for the compound CCC(=O)NCc1cc(C(=O)NCCN2CCC(N3CCC(n4c(=O)[nH]c5ccccc54)CC3)CC2)cc(C(=O)NCCN2CCN(CCCCC3CCN(CC(=O)N4c5ccccc5NC(=O)c5ccccc54)CC3)CC2)c1 is 7.6

So, CC(=O)N[C@@H](CCCCN)C(=O)N[C@@H](CCCNC(=N)N)C(=O)NCCCCC1CCN(CC(=O)N2c3ccccc3NC(=O)c3ccccc32)CC1 ? Its Ratio Ki was 49

---

testSystem: Muscarinic acetylcholine receptor M2 and M5 (Homo sapiens) (UniProt P08172+P08912)
Sequence (P08172 whole entry, looked up): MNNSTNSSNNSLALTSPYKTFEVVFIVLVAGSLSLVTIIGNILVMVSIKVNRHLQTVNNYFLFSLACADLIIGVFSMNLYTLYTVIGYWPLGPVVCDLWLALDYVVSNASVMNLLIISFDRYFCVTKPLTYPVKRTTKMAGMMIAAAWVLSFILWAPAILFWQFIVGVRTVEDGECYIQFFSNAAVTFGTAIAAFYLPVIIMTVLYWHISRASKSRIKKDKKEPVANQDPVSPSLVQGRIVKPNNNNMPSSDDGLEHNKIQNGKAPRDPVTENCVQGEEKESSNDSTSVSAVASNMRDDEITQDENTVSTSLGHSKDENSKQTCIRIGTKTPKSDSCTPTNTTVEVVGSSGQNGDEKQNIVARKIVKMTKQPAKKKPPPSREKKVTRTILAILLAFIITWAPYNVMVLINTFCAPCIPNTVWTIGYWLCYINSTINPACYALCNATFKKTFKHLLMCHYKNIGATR
Sequence (P08912 whole entry, looked up): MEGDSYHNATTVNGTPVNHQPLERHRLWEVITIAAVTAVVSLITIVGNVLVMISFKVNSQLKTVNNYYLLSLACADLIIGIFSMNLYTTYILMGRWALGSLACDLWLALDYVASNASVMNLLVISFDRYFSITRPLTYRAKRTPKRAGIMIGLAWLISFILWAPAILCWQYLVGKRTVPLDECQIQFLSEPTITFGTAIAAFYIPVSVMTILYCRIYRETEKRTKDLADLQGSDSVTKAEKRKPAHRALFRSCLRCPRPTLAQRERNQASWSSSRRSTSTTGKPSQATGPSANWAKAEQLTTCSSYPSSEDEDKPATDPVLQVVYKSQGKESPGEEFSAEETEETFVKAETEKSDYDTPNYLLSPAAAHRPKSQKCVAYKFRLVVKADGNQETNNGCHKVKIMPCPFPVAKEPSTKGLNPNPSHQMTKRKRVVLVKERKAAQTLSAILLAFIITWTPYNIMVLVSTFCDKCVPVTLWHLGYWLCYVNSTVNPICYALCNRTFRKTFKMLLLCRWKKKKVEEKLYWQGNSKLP
testProtocol: Selectivity ratio of Ki for human muscarinic M5 receptor expressed in CHO-K9 cells to Ki for human muscarinic M2 receptor expressed in CHO-K9 cells
Type: cell-based
I'd appreciate it if you could supply Ratio Ki values for the items below.
I only need the number, thanks.

Tested system Muscarinic acetylcholine receptor M2 and M5 (Homo sapiens) (UniProt P08172+P08912); Ratio Ki recorded for CC(=O)N[C@@H](CCCCN)C(=O)N[C@@H](C)C(=O)N[C@@H](Cc1ccc(O)cc1)C(=O)NCCCCC1CCN(CC(=O)N2c3ccccc3NC(=O)c3ccccc32)CC1 was 53

Note to self: Ratio Ki of CC(=O)N[C@@H](CCCCN)C(=O)N[C@@H](CCCNC(=N)N)C(=O)NCCN1CCN(CCCCC2CCN(CC(=O)N3c4ccccc4NC(=O)c4ccccc43)CC2)CC1 with Muscarinic acetylcholine receptor M2 and M5 (Homo sapiens) (UniProt P08172+P08912) was 1900

Entry CN1CC=C(c2nsnc2OCCCN2CCN(CCCCC3CCN(CC(=O)N4c5ccccc5NC(=O)c5ccccc54)CC3)CC2)CC1 , Muscarinic acetylcholine receptor M2 and M5 (Homo sapiens) (UniProt P08172+P08912) data, Ratio Ki value: 230

Ratio Ki value, target or system Muscarinic acetylcholine receptor M2 and M5 (Homo sapiens) (UniProt P08172+P08912), for CC(=O)N[C@@H](CCC(N)=O)C(=O)N[C@@H](C)C(=O)N[C@@H](CC(C)C)C(=O)NCCCCC1CCN(CC(=O)N2c3ccccc3NC(=O)c3ccccc32)CC1 : 4.4

Form: item CC(=O)N[C@@H](CCCNC(=N)N)C(=O)N[C@@H](CCCCN)C(=O)NCCCCC1CCN(CC(=O)N2c3ccccc3NC(=O)c3ccccc32)CC1 ; test system Muscarinic acetylcholine receptor M2 and M5 (Homo sapiens) (UniProt P08172+P08912); Ratio Ki: 39

Field Ratio Ki (system: Muscarinic acetylcholine receptor M2 and M5 (Homo sapiens) (UniProt P08172+P08912)) for entry CCC(=O)NCCCCC1CCN(CC(=O)N2c3ccccc3NC(=O)c3ccccc32)CC1 = 98

Item: CC(=O)N[C@@H](CCCCN)C(=O)N[C@@H](Cc1ccc(O)cc1)C(=O)NCCN1CCN(CCCCC2CCN(CC(=O)N3c4ccccc4NC(=O)c4ccccc43)CC2)CC1 | System: Muscarinic acetylcholine receptor M2 and M5 (Homo sapiens) (UniProt P08172+P08912) | Ratio Ki: 780

Item: CC(=O)N[C@@H](Cc1c[nH]c2ccccc12)C(=O)N[C@@H](C)C(=O)N[C@@H](Cc1ccc(O)cc1)C(=O)NCCN1CCN(CCCCC2CCN(CC(=O)N3c4ccccc4NC(=O)c4ccccc43)CC2)CC1 | System: Muscarinic acetylcholine receptor M2 and M5 (Homo sapiens) (UniProt P08172+P08912) | Ratio Ki: 390

Form field Ratio Ki for item CC(=O)N[C@@H](CCC(N)=O)C(=O)N[C@@H](C)C(=O)N[C@@H](CC(C)C)C(=O)NCCN1CCN(CCCCC2CCN(CC(=O)N3c4ccccc4NC(=O)c4ccccc43)CC2)CC1 on Muscarinic acetylcholine receptor M2 and M5 (Homo sapiens) (UniProt P08172+P08912): 710

GET /values?item= CC(=O)N[C@@H](CCCCN)C(=O)N[C@@H](C)C(=O)N[C@@H](CCCNC(=N)N)C(=O)NCCCCC1CCN(CC(=O)N2c3ccccc3NC(=O)c3ccccc32)CC1 &system= Muscarinic acetylcholine receptor M2 and M5 (Homo sapiens) (UniProt P08172+P08912) returns Ratio Ki: 56

Ratio Ki of CC(=O)N[C@@H](Cc1ccc(O)cc1)C(=O)N[C@@H](C)C(=O)N[C@@H](CCCCN)C(=O)NCCN1CCN(CCCCC2CCN(CC(=O)N3c4ccccc4NC(=O)c4ccccc43)CC2)CC1 , assay on Muscarinic acetylcholine receptor M2 and M5 (Homo sapiens) (UniProt P08172+P08912), is 260

Form: item CC(=O)N[C@@H](C)C(=O)N[C@@H](C)C(=O)NCCN1CCN(CCCCC2CCN(CC(=O)N3c4ccccc4NC(=O)c4ccccc43)CC2)CC1 ; test system Muscarinic acetylcholine receptor M2 and M5 (Homo sapiens) (UniProt P08172+P08912); Ratio Ki: 1100

The measurements presented in this section are drawn from ChEMBL document CHEMBL4396879.
